molecular target: T1, CD3ε homodimer protein (human, UniProt P07766 23-126, limits assumed, sulfo-tag or biotin label in some ECL assays); test: SPR, CD3ε homodimer on chip;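 note: biacore SPR with antibody variants flowed as analyte over amine-coupled CD3ε homodimer on a CM chip, bound amount of each single-residue H chain variant over that of parent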
T1 construct: also called human CD3ε homodimer protein; CD3 (CD3ε)
T1 sequence (P07766 23-126 limits assumed): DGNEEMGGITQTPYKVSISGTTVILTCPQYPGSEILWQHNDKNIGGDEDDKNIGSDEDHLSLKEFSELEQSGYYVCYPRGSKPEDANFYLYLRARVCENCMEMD
Listing: ratio of amounts bound vs CE115HA000 of selected binders
# answer = number (no unit)

Consider the following illustrative entries.
Binder	ratio of amounts bound vs CE115HA000
CE115HA000 Y59S (antibody, name in Kabat numbering, V domains shown) VH: QVQLVESGGGVVQPGRSLRLSCAASGFTFSNAWMHWVRQAPGKGLEWVAQIKAKSNNYATYSAESVKGRFTISRDDSKNSLYLQMNSLKTEDTAVYYCRYVHYGAYYGVDAWGQGTTVTVSS VL: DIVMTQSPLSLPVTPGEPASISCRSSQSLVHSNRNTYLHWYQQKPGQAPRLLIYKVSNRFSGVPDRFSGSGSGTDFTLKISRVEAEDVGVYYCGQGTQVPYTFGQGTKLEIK	0.94
CE115HA000 H35A (antibody, name in Kabat numbering, V domains shown) VH: QVQLVESGGGVVQPGRSLRLSCAASGFTFSNAWMAWVRQAPGKGLEWVAQIKAKSNNYATYYAESVKGRFTISRDDSKNSLYLQMNSLKTEDTAVYYCRYVHYGAYYGVDAWGQGTTVTVSS VL: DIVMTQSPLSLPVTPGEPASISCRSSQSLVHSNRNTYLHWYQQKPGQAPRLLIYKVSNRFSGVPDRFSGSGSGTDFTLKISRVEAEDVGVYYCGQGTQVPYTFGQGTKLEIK	0.17
CE115HA000 A56G (antibody, name in Kabat numbering, V domains shown) VH: QVQLVESGGGVVQPGRSLRLSCAASGFTFSNAWMHWVRQAPGKGLEWVAQIKAKSNNYGTYYAESVKGRFTISRDDSKNSLYLQMNSLKTEDTAVYYCRYVHYGAYYGVDAWGQGTTVTVSS VL: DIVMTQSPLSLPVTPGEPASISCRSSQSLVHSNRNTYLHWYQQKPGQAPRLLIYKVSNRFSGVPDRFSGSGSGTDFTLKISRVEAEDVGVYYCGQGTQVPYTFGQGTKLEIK	0.61

Reported ratio of amounts bound vs CE115HA000 ( CE115HA000 N53Q (antibody, name in Kabat numbering, V domains shown) VH: QVQLVESGGGVVQPGRSLRLSCAASGFTFSNAWMHWVRQAPGKGLEWVAQIKAKSQNYATYYAESVKGRFTISRDDSKNSLYLQMNSLKTEDTAVYYCRYVHYGAYYGVDAWGQGTTVTVSS VL: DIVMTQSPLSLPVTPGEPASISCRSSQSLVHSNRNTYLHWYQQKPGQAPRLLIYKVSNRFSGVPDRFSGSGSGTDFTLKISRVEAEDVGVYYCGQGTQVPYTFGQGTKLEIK ) = 1.1

Reported ratio of amounts bound vs CE115HA000 ( CE115HA000 D72V (antibody, name in Kabat numbering, V domains shown) VH: QVQLVESGGGVVQPGRSLRLSCAASGFTFSNAWMHWVRQAPGKGLEWVAQIKAKSNNYATYYAESVKGRFTISRVDSKNSLYLQMNSLKTEDTAVYYCRYVHYGAYYGVDAWGQGTTVTVSS VL: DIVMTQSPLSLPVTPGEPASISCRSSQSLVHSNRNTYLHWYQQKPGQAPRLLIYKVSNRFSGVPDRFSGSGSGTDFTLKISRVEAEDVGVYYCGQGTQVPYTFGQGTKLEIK ) = 1.43

Reported ratio of amounts bound vs CE115HA000 ( CE115HA000 S52cQ (antibody, name in Kabat numbering, V domains shown) VH: QVQLVESGGGVVQPGRSLRLSCAASGFTFSNAWMHWVRQAPGKGLEWVAQIKAKQNNYATYYAESVKGRFTISRDDSKNSLYLQMNSLKTEDTAVYYCRYVHYGAYYGVDAWGQGTTVTVSS VL: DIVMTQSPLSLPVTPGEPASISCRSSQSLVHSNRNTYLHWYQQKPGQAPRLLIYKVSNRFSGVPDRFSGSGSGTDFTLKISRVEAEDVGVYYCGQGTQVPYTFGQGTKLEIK ) = 1.04

Reported ratio of amounts bound vs CE115HA000 ( CE115HA000 K75T (antibody, name in Kabat numbering, V domains shown) VH: QVQLVESGGGVVQPGRSLRLSCAASGFTFSNAWMHWVRQAPGKGLEWVAQIKAKSNNYATYYAESVKGRFTISRDDSTNSLYLQMNSLKTEDTAVYYCRYVHYGAYYGVDAWGQGTTVTVSS VL: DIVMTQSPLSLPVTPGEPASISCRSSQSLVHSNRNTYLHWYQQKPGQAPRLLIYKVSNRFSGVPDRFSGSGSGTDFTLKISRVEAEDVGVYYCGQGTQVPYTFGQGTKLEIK ) = 9.34
